Origin of values: PubChem BioAssay (NCI)

System: SF-539 CNS
PROTOCOL DETAILS: NCI-60 one-dose screen, 48 h (100 = growth as untreated, 0 = no growth, -100 = all killed)
CONDITIONS USED: 10 µM unless noted
Compounds without any hit were thinned out: in the full panel of roughly 83,000, 20% have a hit.
The label fulfilled is reserved for growth strictly under 20%; not fulfilled covers values equal to or above it.

Task: Lab note: growth threshold 20%. Does this compound come in strictly under it? COc1ccc2c(c1)c(-c1nn3c(=O)cc(-c4ccccc4)nc3s1)cn2C
Output: fulfilled

Task: Continue with O=C(NNc1nc2cc(F)cc(F)c2n2cccc12)c1ncccn1
Output: fulfilled

Task: Then what about the compound Cc1nc(-c2cc3ccccc3c(N3CCN(C)CC3)n2)cs1 ?
Output: not fulfilled

Task: And then CCOC(=O)c1nn(-c2ccc(C)cc2)c(=O)c2c(N)c(C#N)c(-c3ccc(OC)cc3)cc12 , what is it?
Output: not fulfilled

Task: Now give it for Nc1n[nH]c2cccc(C#Cc3cccc(NC(=O)c4cccc(OC(F)(F)F)c4)c3)c12 too.
Output: fulfilled

----------
Tested on: SNB-75 CNS
PROTOCOL DETAILS: NCI-60 one-dose screen, 48 h
CONDITIONS USED: 10 µM unless noted
Compounds without any hit were thinned out: in the full panel of roughly 83,000, 20% have a hit. Calls of active or inactive are those of the source. How the source made its calls: active means growth percent below 10; inactive means the rest.
I would appreciate it if you answered using one of these outcomes: active, inactive

Task: Dear all, I need the recorded test outcome for C/C=C/C=C1\C[C@H]2CO[C@H](O2)C1=O , thank you.
Output: inactive

Task: What about O=C1CSC(=O)N1Cc1cc2ccccc2nc1Cl ?
Output: inactive

Task: What about this compound? COc1ccc2oc3c4[nH]c5ccccc5c4c4c(c3c2c1)C(=O)N(O)C4=O
Output: inactive

Task: Next compound up: CN1CCN(Cc2ccc(NC(=O)c3cncc(C#Cc4cnc5ccc(O[C@H]6CCOC6)nn45)c3)cc2C(F)(F)F)CC1
Output: active

Task: Can you handle C=C(C)C(=O)O[C@H]1C[C@@]2(C)OC(=CC2=O)/C(C)=C\[C@H]2OC(=O)C(=C)[C@H]12 next?
Output: inactive

Task: Same again, this time with O=c1cc(-c2ccccc2)nc2sc(-c3c[nH]c4ccc(F)cc34)nn12
Output: active

Task: Then O=C(O)CNS(=O)(=O)c1ccc(Oc2ccc(S(=O)(=O)NCC(=O)O)cc2)cc1 ?
Output: inactive

Task: Please give the result for Nc1n[nH]c2cccc(C#Cc3cccc(NC(=O)c4cccc(OC(F)(F)F)c4)c3)c12 too.
Output: inactive

Task: Another compound to check: Nc1nc(N)c2c(n1)NC(c1ccc(Cl)cc1)CC(c1ccc(Nc3nc(NCCO)nc(Nc4ccc(Cl)cc4)n3)cc1)=N2 (centres undefined)
Output: inactive

Task: Try this compound too: Cc1nn(-c2ccccc2)cc1/C=N/Nc1nc(Nc2ccccc2)nc(Nc2ccc(S(N)(=O)=O)cc2)n1
Output: inactive

Task: And what about the compound CC(=O)Oc1ccc(CCN2C(=O)CSC2=S)cc1 ?
Output: inactive

Task: Record: CS(=O)c1nccc(-c2c(-c3ccc(F)c(OCc4ccccc4)c3)nc3sccn23)n1 (centres undefined)
Output: inactive

Task: How about this compound: Oc1ccccc1/C=N/Nc1nc(N/N=C/c2ccccc2O)nc(N2CCOCC2)n1
Output: active

Task: Further, for CS(=O)c1nccc(-c2c(-c3ccc(F)c(OCCc4ccccc4)c3)nc3sccn23)n1 (centres undefined) ?
Output: inactive

Task: // next record Cc1ccc(NC(=O)c2ccc(CN3CCN(C)CC3)c(I)c2)cc1Oc1ccc(-c2[nH]nc3ncnc(N)c23)cc1
Output: inactive

Task: Please give the result for IP(CCCSc1n(Cc2ccc3ccccc3c2)c(-c2ccccc2)c(-c2ccccc2)[n+]1Cc1ccc2ccccc2c1)(c1ccccc1)(c1ccccc1)c1ccccc1 too.
Output: inactive

Task: Can you check COc1cccc(/C=C/C(=O)c2ccc(NC(=O)COc3cccc4cccnc34)cc2)c1 next?
Output: inactive

Task: Let us now turn to CN(C)c1ncc(/C=C2\SC(=S)N(Cc3ccccc3Cl)C2=O)s1
Output: inactive

Task: Can you check C/C(=C(/c1ccc(O)cc1)c1ccc(OCCN2CCCC2)cc1)c1ccc(Cl)cc1 next?
Output: inactive

Task: Can you check CCOC(=O)Nc1cccc(-n2cnc3cc(-c4ccc(O)cc4)ccc32)c1 next?
Output: active

Task: Further, for Cc1nn(-c2ccc(Br)cc2)c2nc(CCl)[nH]c(=O)c12 ?
Output: inactive

Task: # repeat for NCCN1CCN(c2nc(-c3ccccc3)nc3nc(-c4ccccc4)oc23)CC1
Output: active

Task: Now the same for C/C(=C(/C)C1CC1CCN(C(=O)c1ccc([N+](=O)[O-])cc1)S(=O)(=O)c1ccc(C)cc1)C1CCCCC1 (centres undefined)
Output: inactive

Task: Then what about the compound CCN1C/C(=N\S(=O)(=O)c2ccccc2)N(CC)C1=S ?
Output: inactive

Task: Let us now turn to CC[C@@](C)(NC(=O)C(C)(C)NC(=O)[C@@H](NC(=O)[C@@H]1CCCN1C(=O)C(C)(C)NC(=O)[C@H](CC(C)C)NC(=O)CNC(=O)C(C)(C)NC(=O)[C@@H](NC(=O)C(C)(C)NC(=O)[C@H](CCC(N)=O)NC(=O)[C@H](C)NC(=O)C(C)(C)NC(=O)[C@H](C)NC(=O)C(C)(C)NC(=O)[C@H](C)NC(=O)C(C)(C)NC(C)=O)C(C)C)C(C)C)C(=O)N[C@@H](CCC(N)=O)C(=O)N[C@@H](CCC(N)=O)C(=O)N[C@H](CO)CC1CCCCC1
Output: inactive

Task: // same read-out, input: Cc1cccc(NC(c2cc3cccc4ccc5cccc2c5c43)c2nnnn2C(C)(C)C)c1C (centres undefined)
Output: inactive

Task: Entry Cn1c2ccc(Br)cc2c2c3c(c4c5cc(F)ccc5oc4c21)C(=O)N(O)C3=O please
Output: inactive

Task: Then this compound: Cc1cc(C(=O)Nc2ccc(SC#N)cc2)c(C)o1
Output: inactive

Task: What do you get for COc1ccc(/C=N/Nc2nc(N/N=C/c3ccc(OC)cc3O)nc(N3CCOCC3)n2)c(O)c1 ?
Output: inactive

Task: Entry C#C[C@]1(O)CC[C@H]2[C@@H]3CC=C4c5sc(Nc6cc(OC)ccc6OC)nc5CC[C@]4(C)[C@H]3CC[C@@]21C please
Output: active

Task: And then Brc1cccc(/C=N/Nc2nc(N/N=C/c3cccc(Br)c3)nc(N3CCOCC3)n2)c1 , what is it?
Output: inactive

Task: Same for CNC(=O)c1cc(Oc2ccc3nc(NC(=O)c4ccc(CN5CCCN(C)CC5)c(C(F)(F)F)c4)sc3c2)ccn1
Output: inactive

Task: How about this compound: COC(=O)Nc1ccc(-c2nc(-c3cccc(O)c3)c(-c3ccnc(Br)c3)[nH]2)cc1
Output: active

Task: // query: CS(=O)(=O)c1ccc(-c2nn(-c3ccccc3)cc2/C=C/C(=O)c2ccc(Br)cc2)cc1
Output: inactive
